# Tested on: glucose resorption
# EXPERIMENTAL_DETAILS: resorption-inhibiting activity (oral glucose loading) in fasting guinea pigs
# Assay type: in vivo
# CONDITIONS: Cavia porcellus, PIG1, ip; dose 40 mg/kg i.p.; guinea pig, 1 g glucose p.o.; AUC difference vs control
# Protocol: To establish the pharmacological properties of the compounds in accordance with the invention, blood-sugar-lowering activity and resorption inhibition were determined in separate tests and compared with two structurally related compounds. To determine the effect on glucose resorption, oral glucose loading was effected. […] The blood-glucose concentration was determined in the hemolysate by the hexokinase method, as described. […]
Reported inhibition in vivo at 40 mg/kg values for the following compounds.
Number only, in %; omit the unit.

Field: example entries. Status: answers known.
COMPOUND	OBSERVED_RESULT
COCCOCCNN=C(C)C(=O)[O-].[Na+] [Example 2a]	37
CC(=NNCCOc1ccccc1)C(=O)O [Example 1b]	98
CC(=NNCCOCCC1CCCCC1)C(=O)O [Example 3d]	15
CC(=NNCCSc1ccccc1)C(=O)[O-].[Na+] [Example 2d]	33
CC(=NNCCOCc1ccccc1)C(=O)[O-].[Na+] [Example 2b]	49.9
CC(=NNCCOc1ccc(C)cc1)C(=O)O [Example 1]	25

Qu. Quick one: inhibition in vivo at 40 mg/kg of CC(=NNCCCOCc1ccccc1)C(=O)O [Example 3e] ?
Ans. 44
